Tested System: 5-hydroxytryptamine receptor 1A (Rattus norvegicus)
Sequence (P19327 whole entry): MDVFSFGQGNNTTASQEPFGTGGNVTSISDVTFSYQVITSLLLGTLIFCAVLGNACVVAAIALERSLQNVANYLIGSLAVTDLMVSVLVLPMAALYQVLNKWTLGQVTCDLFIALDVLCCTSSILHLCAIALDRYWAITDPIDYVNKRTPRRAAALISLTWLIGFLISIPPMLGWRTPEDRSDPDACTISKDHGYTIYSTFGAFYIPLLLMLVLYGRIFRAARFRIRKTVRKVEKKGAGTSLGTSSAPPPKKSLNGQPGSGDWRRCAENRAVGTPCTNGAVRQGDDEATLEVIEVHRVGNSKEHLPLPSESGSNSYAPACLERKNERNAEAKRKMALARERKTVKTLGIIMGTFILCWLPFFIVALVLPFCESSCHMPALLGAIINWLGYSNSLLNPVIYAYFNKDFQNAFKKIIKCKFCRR
Measure: pKi
Value format note: pKi is -log10 of concentration (mol/L); just state the number.

Enter pKi (test system 5-hydroxytryptamine receptor 1A (Rattus norvegicus)) for O=C1C2CCCN2C(=O)CN1CN1CCN(c2cccc3ccccc23)CC1 (stereo not given)
8.17

State recorded pKi with 5-hydroxytryptamine receptor 1A (Rattus norvegicus), entry O=C1C2CCCN2C(=O)CN1CN1CCN(c2cccc3c2CC=COO3)CC1 (stereo not given) , no comment.
7.94

Write down measured pKi (5-hydroxytryptamine receptor 1A (Rattus norvegicus)) for this compound. O=C1[C@@H]2CCCN2C(=O)CN1CN1CCN(c2cccc3ccccc23)CC1
8.39

Print 5-hydroxytryptamine receptor 1A (Rattus norvegicus) pKi for O=C1[C@@H]2CCCN2C(=O)CN1CN1CCN(c2cccc3c2CC=COO3)CC1 .
7.91

Find pKi for O=C1[C@H]2CCCN2C(=O)CN1CN1CCN(c2cccc3ccccc23)CC1 on 5-hydroxytryptamine receptor 1A (Rattus norvegicus) and write it down.
8.34

---

For each entry below, report its Ki value.
Tested System: Adrenergic receptor alpha-1 (Rattus norvegicus, UniProt P15823+P23944+P43140)
Experimental Protocol: In vitro inhibition of [3H]prazosin binding to Alpha-1 adrenergic receptor in rat cerebral cortex membranes
Assay type: cell membranes, Membrane

Quote Ki with test system Adrenergic receptor alpha-1 (Rattus norvegicus, UniProt P15823+P23944+P43140) for C[C@H]1CN(c2cccc3ccccc23)CCN1CN1CC(=O)N2CCC[C@H]2C1=O
> 1000 nM

Quote Ki with test system Adrenergic receptor alpha-1 (Rattus norvegicus, UniProt P15823+P23944+P43140) for C[C@H]1CN(c2cccc3ccccc23)CCN1CN1CC(=O)N2CCC[C@@H]2C1=O
> 1000 nM

Fill: Ki (Adrenergic receptor alpha-1 (Rattus norvegicus, UniProt P15823+P23944+P43140)) for this molecule C[C@@H]1CN(c2cccc3ccccc23)CCN1CN1CC(=O)N2CCC[C@@H]2C1=O
> 1000 nM

Consider the molecule O=C1C2CCCN2C(=O)CN1CCCCN1CCN(c2cccc3ccccc23)CC1 (stereo not given) tested on Adrenergic receptor alpha-1 (Rattus norvegicus, UniProt P15823+P23944+P43140); state its Ki.
8 nM

Give Ki for CCS(=O)(=O)Nc1cccc(N2CCN(CCCCN3C(=O)C4CCCN4C3=O)CC2)c1 (stereo not given) tested on Adrenergic receptor alpha-1 (Rattus norvegicus, UniProt P15823+P23944+P43140).
> 1000 nM

Name the value of Ki reported for O=C1C2CCCCN2C(=O)N1CN1CCN(c2cccc3c2OCCO3)CC1 (stereo not given) when tested on Adrenergic receptor alpha-1 (Rattus norvegicus, UniProt P15823+P23944+P43140).
> 1000 nM

Provide Ki, recorded with Adrenergic receptor alpha-1 (Rattus norvegicus, UniProt P15823+P23944+P43140), of O=C1C2CCCCN2C(=O)N1CN1CCN(c2cccc3ccccc23)CC1 (stereo not given)
> 1000 nM

// fetch Ki for O=C1C2CCCN2C(=O)N1CN1CCN(c2cccc3[nH]cnc23)CC1 (stereo not given) ; system: Adrenergic receptor alpha-1 (Rattus norvegicus, UniProt P15823+P23944+P43140)
> 10000 nM

// fetch Ki; item: C[C@@H]1CN(c2cccc3ccccc23)CCN1CCCCN1CC(=O)N2CCC[C@@H]2C1=O ; system: Adrenergic receptor alpha-1 (Rattus norvegicus, UniProt P15823+P23944+P43140)
20.1 nM

Enter Ki (test system Adrenergic receptor alpha-1 (Rattus norvegicus, UniProt P15823+P23944+P43140)) for O=C1C2CCCN2C(=O)CN1CN1CCN(c2cccc3c2CC=COO3)CC1 (stereo not given)
> 1000 nM

---

Measure: Ki

Enter recorded Ki with UniProtKB Q62758 for O=C1[C@@H]2CCCN2C(=O)CN1CN1CCN(c2cccc3ccccc23)CC1 here.
Sequence (Q62758 whole entry): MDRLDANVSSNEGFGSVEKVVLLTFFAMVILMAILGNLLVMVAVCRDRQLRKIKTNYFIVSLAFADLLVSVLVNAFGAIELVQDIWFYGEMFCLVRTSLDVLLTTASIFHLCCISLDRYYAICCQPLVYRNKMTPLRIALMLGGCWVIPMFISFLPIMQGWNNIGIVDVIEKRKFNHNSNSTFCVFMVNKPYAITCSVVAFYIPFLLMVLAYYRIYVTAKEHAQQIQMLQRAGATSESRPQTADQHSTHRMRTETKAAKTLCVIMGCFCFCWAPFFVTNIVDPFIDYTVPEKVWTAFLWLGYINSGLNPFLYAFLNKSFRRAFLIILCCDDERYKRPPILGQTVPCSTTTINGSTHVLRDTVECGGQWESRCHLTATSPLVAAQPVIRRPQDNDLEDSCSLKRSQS
> 10 µM

---

Tested System: 5-hydroxytryptamine receptor 1A (Homo sapiens, UniProt P08908)
Sequence (P08908 whole entry): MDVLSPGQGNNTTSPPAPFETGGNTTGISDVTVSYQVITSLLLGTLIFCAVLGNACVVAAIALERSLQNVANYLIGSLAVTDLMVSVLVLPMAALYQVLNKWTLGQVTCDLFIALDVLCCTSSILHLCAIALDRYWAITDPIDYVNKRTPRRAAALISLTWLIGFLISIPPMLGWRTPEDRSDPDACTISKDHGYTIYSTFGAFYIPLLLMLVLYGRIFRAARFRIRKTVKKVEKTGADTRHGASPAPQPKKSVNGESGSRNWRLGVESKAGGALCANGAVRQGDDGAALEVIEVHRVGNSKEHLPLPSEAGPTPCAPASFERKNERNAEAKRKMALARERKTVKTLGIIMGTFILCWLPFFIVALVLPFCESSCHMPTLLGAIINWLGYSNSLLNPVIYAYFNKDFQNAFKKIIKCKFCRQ
Experimental Protocol: Inhibition of forskolin-induced increase in cAMP in human 5-hydroxytryptamine 1A receptor expressed HeLa cells
Measure: pEC50
Bear in mind: pEC50 is minus log10 of a mol/L concentration; give just that figure.

Answer briefly: pEC50 recorded on 5-hydroxytryptamine receptor 1A (Homo sapiens, UniProt P08908) for O=C1[C@@H]2CCCN2C(=O)CN1CN1CCN(c2cccc3ccccc23)CC1
6.82

---

Tested System: 5-hydroxytryptamine receptor 7 (Rattus norvegicus, UniProt P32305)
Sequence (P32305 whole entry): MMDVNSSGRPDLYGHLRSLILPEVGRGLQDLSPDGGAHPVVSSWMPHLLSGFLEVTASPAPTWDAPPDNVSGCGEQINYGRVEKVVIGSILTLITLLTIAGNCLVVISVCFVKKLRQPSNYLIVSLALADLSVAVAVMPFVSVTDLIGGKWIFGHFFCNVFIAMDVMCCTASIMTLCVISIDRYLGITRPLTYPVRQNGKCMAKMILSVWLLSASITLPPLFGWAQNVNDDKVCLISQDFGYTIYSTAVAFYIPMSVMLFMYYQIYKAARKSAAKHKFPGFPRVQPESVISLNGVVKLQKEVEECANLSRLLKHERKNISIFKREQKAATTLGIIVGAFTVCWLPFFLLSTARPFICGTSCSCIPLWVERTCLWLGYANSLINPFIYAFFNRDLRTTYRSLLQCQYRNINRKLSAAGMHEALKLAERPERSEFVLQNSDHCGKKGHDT
Measure: pKi
pKi here: minus log base 10 of the concentration, concentration in moles per litre.

Find the measured pKi of O=C1[C@@H]2CCCN2C(=O)CN1CN1CCN(c2cccc3ccccc23)CC1 and report it.
7.00

---

Tested System: 5-hydroxytryptamine receptor 2A (Rattus norvegicus)
Sequence (P14842 whole entry): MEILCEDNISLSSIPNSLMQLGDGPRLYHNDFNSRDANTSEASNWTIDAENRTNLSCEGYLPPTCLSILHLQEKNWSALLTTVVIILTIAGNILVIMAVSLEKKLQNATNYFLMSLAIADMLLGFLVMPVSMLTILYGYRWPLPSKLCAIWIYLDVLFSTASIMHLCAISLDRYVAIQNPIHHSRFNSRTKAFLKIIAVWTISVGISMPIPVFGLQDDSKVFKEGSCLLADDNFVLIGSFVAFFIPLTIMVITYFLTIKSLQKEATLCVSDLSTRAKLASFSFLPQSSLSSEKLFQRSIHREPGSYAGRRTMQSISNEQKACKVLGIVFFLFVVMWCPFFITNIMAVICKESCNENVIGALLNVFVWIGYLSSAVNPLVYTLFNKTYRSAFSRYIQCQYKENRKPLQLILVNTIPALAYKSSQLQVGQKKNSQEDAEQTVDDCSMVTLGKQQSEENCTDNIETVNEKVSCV
Experimental Protocol: In vitro inhibition of [3H]ketanserin binding to 5-hydroxytryptamine 2A receptor in rat cerebral frontal cortex membranes
Assay type: cell membranes, Membrane
Measure: pKi
Scale: negative log10 of molar concentration, which is what pKi denotes.

Give recorded pKi. O=C1[C@@H]2CCCN2C(=O)CN1CN1CCN(c2cccc3ccccc23)CC1
7.87

---

Tested System: GABA-A receptor; anion channel
Experimental Protocol: In vitro inhibition of [3H]flunitrazepam binding to Benzodiazepine receptor of rat cerebral cortex membranes
Measure: Ki

Print GABA-A receptor; anion channel Ki for O=C1[C@@H]2CCCN2C(=O)CN1CN1CCN(c2cccc3ccccc23)CC1 .
> 10 µM

---

Tested System: D(2) dopamine receptor (Rattus norvegicus, UniProt P61169)
Sequence (P61169 whole entry): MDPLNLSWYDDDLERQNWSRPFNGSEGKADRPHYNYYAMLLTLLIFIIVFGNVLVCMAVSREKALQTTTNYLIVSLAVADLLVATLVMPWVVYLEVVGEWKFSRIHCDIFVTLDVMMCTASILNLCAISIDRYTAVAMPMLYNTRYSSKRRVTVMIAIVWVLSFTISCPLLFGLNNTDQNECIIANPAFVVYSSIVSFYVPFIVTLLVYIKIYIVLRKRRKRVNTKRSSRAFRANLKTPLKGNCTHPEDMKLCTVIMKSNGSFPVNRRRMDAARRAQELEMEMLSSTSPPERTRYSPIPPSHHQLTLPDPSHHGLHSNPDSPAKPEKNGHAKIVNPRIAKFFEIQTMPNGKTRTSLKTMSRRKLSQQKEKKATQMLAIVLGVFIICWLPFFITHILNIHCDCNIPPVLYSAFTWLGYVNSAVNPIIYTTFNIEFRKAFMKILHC
Experimental Protocol: In vitro inhibition of [3H]-raclopride binding to Dopamine receptor D2 in rat striatum membranes
Measure: Ki (nM)
# value in nM; strip the unit string

Check D(2) dopamine receptor (Rattus norvegicus, UniProt P61169) data and give Ki for O=C1[C@@H]2CCCN2C(=O)CN1CN1CCN(c2cccc3ccccc23)CC1 .
192

---

Tested System: Adrenergic receptor alpha-1 (Rattus norvegicus, UniProt P15823+P23944+P43140)
Sequence (P15823 whole entry): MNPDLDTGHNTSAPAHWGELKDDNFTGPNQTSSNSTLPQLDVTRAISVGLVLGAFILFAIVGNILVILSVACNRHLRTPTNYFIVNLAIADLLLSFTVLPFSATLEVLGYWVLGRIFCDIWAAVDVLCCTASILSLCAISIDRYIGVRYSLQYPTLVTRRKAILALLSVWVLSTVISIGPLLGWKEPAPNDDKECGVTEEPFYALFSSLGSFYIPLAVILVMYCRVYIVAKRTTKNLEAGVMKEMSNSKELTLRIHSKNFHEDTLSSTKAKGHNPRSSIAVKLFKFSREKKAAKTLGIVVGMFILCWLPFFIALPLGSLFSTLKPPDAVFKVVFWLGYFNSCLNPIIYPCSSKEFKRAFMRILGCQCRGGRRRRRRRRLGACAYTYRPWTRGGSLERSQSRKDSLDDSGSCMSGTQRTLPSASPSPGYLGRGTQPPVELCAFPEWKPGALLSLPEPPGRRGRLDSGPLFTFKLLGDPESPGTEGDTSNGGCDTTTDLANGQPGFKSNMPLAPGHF
Sequence (P23944 whole entry): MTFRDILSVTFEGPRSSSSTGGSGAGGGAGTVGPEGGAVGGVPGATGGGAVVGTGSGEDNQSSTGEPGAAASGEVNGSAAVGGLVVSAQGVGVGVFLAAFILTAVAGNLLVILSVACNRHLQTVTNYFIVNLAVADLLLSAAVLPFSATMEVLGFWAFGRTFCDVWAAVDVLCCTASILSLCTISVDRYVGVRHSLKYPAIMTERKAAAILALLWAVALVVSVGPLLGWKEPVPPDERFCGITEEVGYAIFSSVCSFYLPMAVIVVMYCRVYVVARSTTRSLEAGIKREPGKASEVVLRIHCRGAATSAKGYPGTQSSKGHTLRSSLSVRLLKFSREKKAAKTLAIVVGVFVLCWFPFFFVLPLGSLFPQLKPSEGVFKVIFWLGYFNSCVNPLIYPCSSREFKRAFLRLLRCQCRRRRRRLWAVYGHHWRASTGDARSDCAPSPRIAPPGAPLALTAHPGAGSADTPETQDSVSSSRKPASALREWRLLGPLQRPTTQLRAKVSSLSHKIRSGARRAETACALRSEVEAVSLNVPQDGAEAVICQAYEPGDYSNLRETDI
Sequence (P43140 whole entry): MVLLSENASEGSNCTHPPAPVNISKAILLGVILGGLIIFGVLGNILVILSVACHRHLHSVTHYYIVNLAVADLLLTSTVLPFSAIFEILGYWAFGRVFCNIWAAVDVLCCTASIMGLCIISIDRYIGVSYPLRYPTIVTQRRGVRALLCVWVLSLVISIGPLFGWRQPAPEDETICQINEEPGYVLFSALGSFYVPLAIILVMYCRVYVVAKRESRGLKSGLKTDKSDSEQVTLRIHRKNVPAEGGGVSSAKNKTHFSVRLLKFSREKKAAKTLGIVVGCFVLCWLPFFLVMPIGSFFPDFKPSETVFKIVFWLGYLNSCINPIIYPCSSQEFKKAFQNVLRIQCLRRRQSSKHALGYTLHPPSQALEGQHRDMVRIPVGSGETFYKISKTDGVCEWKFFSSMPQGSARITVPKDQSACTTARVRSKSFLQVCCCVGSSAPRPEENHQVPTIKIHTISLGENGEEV
Experimental Protocol: In vitro inhibition of [3H]prazosin binding to Alpha-1 adrenergic receptor in rat cerebral cortex membranes
Type: cell membranes, Membrane
Measure: Ki

Identify Ki associated with the compound C[C@H]1CN(c2cccc3ccccc23)CCN1CCCCN1CC(=O)N2CCC[C@H]2C1=O
34.4 nM

Hello, please tell me recorded Ki for this one: O=C1C2CCCN2C(=O)CN1CN1CCN(c2cccc3ccccc23)CC1 (stereo not drawn)
> 1000 nM

Specify reported Ki for the compound shown: O=C1[C@@H]2CCCN2C(=O)CN1CN1CCN(c2cccc3ccccc23)CC1
> 1000 nM

Tell me measured Ki for O=C1[C@H]2CCCN2C(=O)CN1CN1CCN(c2cccc3ccccc23)CC1 please.
> 1000 nM

Look up and state reported Ki for O=C1C2CCCN2C(=O)N1CN1CCN(c2cccc3ccccc23)CC1 (stereo not drawn)
> 1000 nM

Quote Ki reported for O=C1C2CCCN2C(=O)N1CCCCN1CCN(c2cccc3[nH]cnc23)CC1 (stereo not drawn) please.
19.4 nM

# return recorded Ki for entry O=C1[C@@H]2CCCN2C(=O)CN1CN1CCN(c2cccc3c2CC=COO3)CC1
> 1000 nM

Answer with the recorded Ki for the compound listed here: C[C@@H]1CN(c2cccc3ccccc23)CCN1CN1CC(=O)N2CCC[C@H]2C1=O
> 1000 nM
